- System: P. falciparum stage V gametocytes
- Design: BacTiter-Glo ATP luminescence viability of purified stage V gametocytes in 384-well plates, per cent inhibition versus DMSO
- experimental_context: 48 h, 5 µM; inhibitor
Hit rate of the full screen: of about 13,000 compounds, about 3,200 (25%) showed an effect of 50% or more. The list shows a part of the results.

>  <molecule>
O=C1c2ccccc2C(=O)N1CCOc1c(Br)cc(Br)cc1CNCCCNc1cc(=O)c2ccccc2[nH]1

>  <% Inhibition / %>
-3.219

$$$$
>  <molecule>
COc1cc2nc(N3CCC(CNC(=O)c4cccc5cccnc45)CC3)nc(N)c2cc1OC

>  <% Inhibition / %>
14.63

$$$$
>  <molecule>
COc1cc2nc(NCc3cccc(CNC(=O)c4ccc(-c5ccc(C(C)=O)cc5)cc4)c3)nc(N)c2cc1OC.O=C(O)C(F)(F)F

>  <% Inhibition / %>
117.9

$$$$
>  <molecule>
COc1ccc2nccc([C@@H](O)CN3CCC(NCc4nc5ccc(F)cc5[nH]4)CC3)c2c1

>  <% Inhibition / %>
-60.2

$$$$
>  <molecule>
COC(=O)Cn1c2ccccc2c2c(N)c(C(=O)OC)c(C)nc21

>  <% Inhibition / %>
7.659

$$$$
>  <molecule>
COc1ccc2nccc([C@@H](O)CN3CCC(NCc4cc5ccccc5[nH]c4=O)CC3)c2c1

>  <% Inhibition / %>
15.99

$$$$
>  <molecule>
CS(=O)(=O)O.Nc1nc(NCC2CCC(CNS(=O)(=O)c3cccc4ccccc34)CC2)nc2ccccc12 (stereo not drawn)

>  <% Inhibition / %>
-1.432

$$$$
>  <molecule>
COCCOc1cccc(CN2CCC(c3cc4nc(C)cc(C(F)(F)F)n4n3)C2)c1 (stereo not drawn)

>  <% Inhibition / %>
-5.307

$$$$
>  <molecule>
COc1ccc2nccc([C@@H](O)CN3CCC(NCc4cc5ccc(C#N)cc5[nH]4)CC3)c2c1

>  <% Inhibition / %>
8.806

$$$$
>  <molecule>
COc1ccc2nccc([C@@H](O)CN3CCC(NCc4cc5c(Cl)cccc5[nH]4)CC3)c2c1

>  <% Inhibition / %>
48.39

$$$$
>  <molecule>
O=C(NCCN1CCCC1)c1cc(-c2ccc(Cl)c(O)c2)c(-c2ccncc2)o1

>  <% Inhibition / %>
13.58

$$$$
>  <molecule>
COc1ccc2nccc([C@@H](O)CN3CCC(NCc4cc5cc(OC(F)(F)F)ccc5[nH]4)CC3)c2c1

>  <% Inhibition / %>
96.42

$$$$
>  <molecule>
COc1ccc2nccc([C@@H](O)CN3CCC(NCc4nc5ccccc5[nH]4)CC3)c2c1

>  <% Inhibition / %>
32.31

$$$$
>  <molecule>
Clc1cccc(C23N=C(Nc4nc5ccccc5[nH]4)NC2(c2ccccc2)NC(Nc2nc4ccccc4[nH]2)=N3)c1 (stereo not drawn)

>  <% Inhibition / %>
3.895

$$$$
>  <molecule>
COc1ccc2nccc([C@@H](O)CN3CCC(NCc4nc5cc(F)c(F)cc5[nH]4)CC3)c2c1

>  <% Inhibition / %>
66.97

$$$$
